Assign log10(Ki) to each entry below.
Biological target: PAF receptor (Oryctolagus cuniculus)
Sequence (G1TEI7 1-342): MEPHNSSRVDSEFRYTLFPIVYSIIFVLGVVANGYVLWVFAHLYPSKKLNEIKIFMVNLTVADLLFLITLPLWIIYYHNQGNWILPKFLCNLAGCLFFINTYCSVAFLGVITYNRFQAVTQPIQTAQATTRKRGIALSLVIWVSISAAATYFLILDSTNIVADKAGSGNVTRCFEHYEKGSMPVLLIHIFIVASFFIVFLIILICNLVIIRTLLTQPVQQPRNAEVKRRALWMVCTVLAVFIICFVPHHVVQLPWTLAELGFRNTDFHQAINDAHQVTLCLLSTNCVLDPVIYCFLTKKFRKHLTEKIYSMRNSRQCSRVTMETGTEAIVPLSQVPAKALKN
Assay: PAF receptor binding assay: inhibition of specific [3H]C18-PAF binding to rabbit platelet membranes
Conditions: 0.6 nM [3H]C18-PAF, 60 min, 22-23 °C, Ki from IC50 (Cheng and Prusoff), read-out: Ki (PAF Receptor Binding Activity)
Counter-ions that a name gives are not always drawn.
All values: log10 Ki [nM].

Ask: Find the measured log10(Ki) of O=C(c1c[nH]c2cc(OCc3ccccc3)ccc12)C1CSC(c2cccnc2)N1 (stereo not drawn) [Example 34] and report it.
Reply: 0.30

Ask: Find the measured log10(Ki) of CC(C)(C)OC(=O)n1cc(C(=O)[C@@H]2CS[C@@H](c3cccnc3)S2)c2ccccc21 (relative stereo) [Example 30, oxalate] and report it.
Reply: 2.95

Ask: Find the measured log10(Ki) of O=C(c1c[nH]c2ccc(OCc3ccccc3)cc12)C1CSC(c2cccnc2)N1 (stereo not drawn) [Example 23] and report it.
Reply: 1.36

Ask: Find the measured log10(Ki) of COc1ccc2c(C(=O)C3CSC(c4cccnc4)N3)cn(C(=O)N(C)C)c2c1 (stereo not drawn) [Example 85] and report it.
Reply: 0.60

Ask: Find the measured log10(Ki) of Cc1ccc2c(c1)c(C(=O)C1CSC(c3cccnc3)N1)c(C)n2C(=O)N1CCOCC1 (stereo not drawn) [Example 68] and report it.
Reply: 1.56

Ask: Find the measured log10(Ki) of CN(C)C(=O)n1cc(C(=O)C2CSC(c3cccnc3)N2)c2ccc(OCc3ccccc3)cc21 (stereo not drawn) [Example 123, oxalate] and report it.
Reply: 0.30

Ask: Find the measured log10(Ki) of CN(C)C(=O)n1cc(C(=O)C2COC(c3cccnc3)N2C=O)c2ccccc21 (stereo not drawn) [Example 113] and report it.
Reply: 3.11

Ask: Find the measured log10(Ki) of O=C(c1cn(C(=O)OCc2ccccc2)c2ccccc12)C1CSC(c2cccnc2)N1 (stereo not drawn) [Example 45, oxalate] and report it.
Reply: 0.48

Ask: Find the measured log10(Ki) of O=C(c1c[nH]c2cc(C#Cc3ccccc3)ccc12)C1CSC(c2cccnc2)N1 (stereo not drawn) [Example 77] and report it.
Reply: 0.95

Ask: Find the measured log10(Ki) of CN(C)C(=O)n1cc(C(=O)C2C[S+]([O-])C(c3cccnc3)N2C=O)c2ccccc21 (stereo not drawn) [Example 95] and report it.
Reply: 3.52

Ask: Find the measured log10(Ki) of Cc1c(C(=O)C2CSC(c3cccnc3)N2)c2ccccc2n1C(=O)N1CCOCC1 (stereo not drawn) [Example 64] and report it.
Reply: 1.94

Ask: Find the measured log10(Ki) of O=C(c1c[nH]c2cc(Oc3ccc(F)cc3)ccc12)C1CSC(c2cccnc2)N1 (stereo not drawn) [Example 70] and report it.
Reply: 0.30

Ask: Find the measured log10(Ki) of Cc1c(C(=O)C2CSC(c3cccnc3)N2)c2ccccc2n1C(=O)N(C)C (stereo not drawn) [Example 65] and report it.
Reply: 0.95

Ask: Find the measured log10(Ki) of CC(C)(C)OC(=O)n1cc(C(=O)C2CSC(c3cccnc3)N2)c2ccc(OCc3ccccc3)cc21 (stereo not drawn) [Example 35, oxalate] and report it.
Reply: 0.00

Ask: Find the measured log10(Ki) of Cc1c(C(=O)C2CSC(c3cccnc3)N2)c2ccccc2n1C (stereo not drawn) [Example 21] and report it.
Reply: 2.02

Ask: Find the measured log10(Ki) of Cc1ccc2c(C(=O)C3CSC(c4cccnc4)N3)cn(C(=O)OC(C)(C)C)c2c1 (stereo not drawn) [Example 81, oxalate] and report it.
Reply: 0.30

Ask: Find the measured log10(Ki) of CN(C)C(=O)n1cc(C(=O)C2CSC(c3cccnc3)N2)c2ccc(OCc3ccc(F)cc3)cc21 (stereo not drawn) [Example 75] and report it.
Reply: 0.30

Ask: Find the measured log10(Ki) of CC(=O)N1C(C(=O)c2cn(C(=O)N(C)C)c3cc(OCc4ccccc4)ccc23)CSC1c1cccnc1 (stereo not drawn) [Example 99] and report it.
Reply: 3.70

Ask: Find the measured log10(Ki) of CC(C)(C)OC(=O)n1cc(C(=O)C2CSC(c3cccnc3)N2)c2ccccc21 (stereo not drawn) [Example 28, oxalate] and report it.
Reply: 0.30

Ask: Find the measured log10(Ki) of O=C(c1c[nH]c2ccccc12)C1CSC(c2cccnc2)N1C(=O)C(F)(F)F (single isomer, unassigned; isomer 1) [Example 102] and report it.
Reply: 3.43

Ask: Find the measured log10(Ki) of O=C(c1c[nH]c2ccccc12)C1CSC(c2cccnc2)N1C(=O)C(F)(F)F (single isomer, unassigned; isomer 2) [Example 103] and report it.
Reply: 3.45

Ask: Find the measured log10(Ki) of CC(=O)N1C(C(=O)c2c[nH]c3ccccc23)CSC1c1cccnc1 (stereo not drawn) [Example 98] and report it.
Reply: 4.26

Ask: Find the measured log10(Ki) of CN(C)C(=O)n1cc(C(=O)C2CSC(c3cccnc3)N2C(N)=O)c2ccc(OCc3ccccc3)cc21 (stereo not drawn) [Example 111] and report it.
Reply: 2.85

Ask: Find the measured log10(Ki) of Cc1c(C(=O)C2CSC(c3cccnc3)N2)c2ccccc2n1C(=O)OC(C)(C)C (stereo not drawn) [Example 40, oxalate] and report it.
Reply: 1.00

Ask: Find the measured log10(Ki) of CN(C)C(=O)n1cc(C(=O)C2CSC(c3cccnc3)N2)c2ccc(Oc3ccc(F)cc3)cc21 (stereo not drawn) [Example 71] and report it.
Reply: 0.30

Ask: Find the measured log10(Ki) of COc1ccc2c(C(=O)C3CSC(c4cccnc4)N3)cn(C(=O)OC(C)(C)C)c2c1 (stereo not drawn) [Example 84, oxalate] and report it.
Reply: 0.95

Ask: Find the measured log10(Ki) of Cc1ccc2c(c1)c(C(=O)C1CSC(c3cccnc3)N1)c(C)n2C(=O)N(C)C (stereo not drawn) [Example 69, oxalate] and report it.
Reply: 1.11

Ask: Find the measured log10(Ki) of O=C(C1CSC(c2cccnc2)N1)n1ccc2cc(OCc3ccccc3)ccc21 (stereo not drawn) [Example 11, dihydrochloride] and report it.
Reply: 1.18

Ask: Find the measured log10(Ki) of CN(C)C(=O)n1cc(C(=O)C2CSC(c3cccnc3)N2C(=O)C(F)(F)F)c2ccc(OCc3ccccc3)cc21 (single isomer, unassigned; isomer 2) [Example 109] and report it.
Reply: 1.85

Ask: Find the measured log10(Ki) of CCN(CC)C(=O)n1cc(C(=O)C2CSC(c3cccnc3)N2)c2ccccc21 (stereo not drawn) [Example 48] and report it.
Reply: 0.00
